The values you see were collected from ChEMBL document CHEMBL1124557.

- Tested on: Cavia porcellus
- ASSAY COMMENT: Inhibition of PAF-induced bronchoconstriction in guinea pig 2 hr after p.o. administration.
- Type: functional
- MEASUREMENT SETUP: po, read-out: ID50 (the source's name)
MEASURED PARAMETER: ED50 (mg/kg)
One number for each entry, in mg/kg.

Some compounds with recorded ED50:
[
  {
    "SMI": "Cc1ccc(C(=C/C=C/C(=O)N[C@H](C)CCCc2cccnc2)c2ccc(C)cc2)cc1",
    "U": "mg/kg",
    "ED50": 18
  },
  {
    "SMI": "COc1cccc(C(=C/C=C/C(=O)NCCCCc2cccnc2)c2cccc(OC)c2)c1",
    "U": "mg/kg",
    "ED50": 80
  },
  {
    "SMI": "COc1ccc(/C(=C/C=C/C(=O)N[C@H](C)CCCc2cccnc2)C2CCCCC2)cc1",
    "U": "mg/kg",
    "ED50": 10
  },
  {
    "SMI": "COc1ccc(/C(=C/C=C/C(=O)N[C@H](C)CCCc2cccnc2)C(C)C)cc1",
    "U": "mg/kg",
    "ED50": 30
  }
]

Could you now look at the following compound, please?
Exercise: Any idea what its ED50 is? The compound is `Cc1ccc(C(=C/C=C/C(=O)NCCCCc2cccnc2)c2ccc(C)cc2)cc1`
Solution: 43

* * *

- System: Cavia porcellus
- ASSAY COMMENT: Ability to prevent PAF-induced bronchoconstriction in guinea pig when administered at a dose of 1 mg/kg intravenously
- Type: functional
- MEASUREMENT SETUP: route intravenous
# cutoff 70% applies to inhibition in vivo at 1 mg/kg; >= gives label 1, < gives label 0

These solved cases illustrate the format of a correct answer.
[
  {
    "SMI": "CCCCC/C(=C\\C=C\\C(=O)N[C@H](C)CCCc1cccnc1)c1ccc(OC)cc1",
    "TARGET UNDER TEST": "Cavia porcellus",
    "ASSIGNED LABEL": "label 1"
  },
  {
    "SMI": "COc1cccc(C(=C/C=C/C(=O)N[C@@H](C)CCCc2cccnc2)c2cccc(OC)c2)c1",
    "TARGET UNDER TEST": "Cavia porcellus",
    "ASSIGNED LABEL": "label 0"
  },
  {
    "SMI": "COc1ccc(C(=C/C=C/C(=O)N[C@@H](CCCc2cccnc2)C(C)C)c2ccc(OC)cc2)cc1",
    "TARGET UNDER TEST": "Cavia porcellus",
    "ASSIGNED LABEL": "label 1"
  },
  {
    "SMI": "CCCCC/C(=C/C=C/C(=O)N[C@H](C)CCCc1cccnc1)c1ccc(OC)cc1",
    "TARGET UNDER TEST": "Cavia porcellus",
    "ASSIGNED LABEL": "label 0"
  },
  {
    "SMI": "COc1ccc(/C(=C\\C=C\\C(=O)N[C@H](C)CCCc2cccnc2)c2ccccc2)cc1",
    "TARGET UNDER TEST": "Cavia porcellus",
    "ASSIGNED LABEL": "label 1"
  }
]

Exercise: Hi, just wondering whether `CCCC[C@H](CCCc1cccnc1)NC(=O)/C=C/C=C(c1ccc(OC)cc1)c1ccc(OC)cc1` shows inhibition in vivo at 1 mg/kg of 70% or higher.
Solution: label 0

Exercise: Also `COc1ccc(C(=C/C=C/C(=O)N[C@@H](CCCc2cccnc2)C2CCCC2)c2ccc(OC)cc2)cc1` , if possible.
Solution: label 0

Exercise: What do you have for `O=C(/C=C/C=C(c1cccc([N+](=O)[O-])c1)c1cccc([N+](=O)[O-])c1)NCCCCc1cccnc1` ?
Solution: label 1
